The reported numbers originate from patent US5714494A.

Absorption ED50 or % inhibition for assorted compounds
# System: intestinal triglyceride absorption
# RUN_DESCRIPTION: Inhibition of intestinal triglyceride absorption in vivo (rats)
# Parameters: species or system male Wistar rats
# ASSAY_CONDITIONS: po, 2 h
Reply numerically in mg/kg, unit not repeated.

Solved cases (5 shown):
COMPOUND	Absorption ED50 or % inhibition, mg/kg
COc1ccccc1Cc1nc2c(c(=O)n(C)c(=O)n2C)n1Cc1ccc(C(C(=O)N[C@@H](CO)c2ccccc2)C2CCCC2)cc1 (some centres unmarked)	3
Cc1ccccc1Cc1nc2c(c(=O)n(C)c(=O)n2C)n1Cc1ccc(C(C(=O)N[C@@H](CO)c2ccccc2)C2CCCC2)cc1 (some centres unmarked)	3
Cn1c(=O)c2c(nc(-c3ccccn3)n2Cc2ccc(C(C(=O)N[C@@H](CO)c3ccccc3)C3CCCC3)cc2)n(C)c1=O (some centres unmarked)	6
Cc1ccsc1-c1nc2c(c(=O)n(C)c(=O)n2C)n1Cc1ccc(C(C(=O)N[C@@H](CO)c2ccccc2)C2CCCC2)cc1 (some centres unmarked)	3
Cc1ccc(-c2nc3c(c(=O)n(C)c(=O)n3C)n2Cc2ccc(C(C(=O)N[C@@H](CO)c3ccccc3)C3CCCC3)cc2)cc1 (single isomer, unassigned)	2

[Q] Item Cn1c(=O)c2c(nc(Cc3ccccc3)n2Cc2ccc(C(C(=O)N[C@@H](CO)c3ccccc3)C3CCCC3)cc2)n(C)c1=O (single isomer, unassigned) has what recorded Absorption ED50 or % inhibition?
[A] 2

[Q] Item Cc1ccc(Cc2nc3c(c(=O)n(C)c(=O)n3C)n2Cc2ccc(C(C(=O)N[C@@H](CO)c3ccccc3)C3CCCC3)cc2)cc1 (some centres unmarked) has what recorded Absorption ED50 or % inhibition?
[A] 2

[Q] Item Cc1cccc(-c2nc3c(c(=O)n(C)c(=O)n3C)n2Cc2ccc(C(C(=O)N[C@@H](CO)c3ccccc3)C3CCCC3)cc2)c1 (some centres unmarked) has what recorded Absorption ED50 or % inhibition?
[A] 2

====

# Test system: intestinal triglyceride absorption
# RUN_DESCRIPTION: Inhibition of intestinal triglyceride absorption in vivo (rats)
# Parameters: species or system male Wistar rats
# ASSAY_CONDITIONS: po, 2 h
OBSERVATION_TYPE: Absorption ED50 or % inhibition

MOLECULE	OBSERVATION_TYPE	VAL
Cn1c(=O)c2c(nc(C=Cc3ccccc3)n2Cc2ccc(C(C(=O)N[C@@H](CO)c3ccccc3)C3CCCC3)cc2)n(C)c1=O (stereo partly drawn)	Absorption ED50 or % inhibition	> 2 mg/kg

[Q] # query: Absorption ED50 or % inhibition | item Cn1c(=O)c2c(nc(Cc3cccc(Cl)c3)n2Cc2ccc(C(C(=O)N[C@@H](CO)c3ccccc3)C3CCCC3)cc2)n(C)c1=O (stereo partly drawn) | system: intestinal triglyceride absorption
[A] > 3 mg/kg

[Q] # query: Absorption ED50 or % inhibition | item CN(C)c1ccc(-c2nc3c(c(=O)n(C)c(=O)n3C)n2Cc2ccc(C(C(=O)N[C@@H](CO)c3ccccc3)C3CCCC3)cc2)cc1 (stereo partly drawn) | system: intestinal triglyceride absorption
[A] > 3 mg/kg

[Q] # query: Absorption ED50 or % inhibition | item COc1ccc(-c2nc3c(c(=O)n(C)c(=O)n3C)n2Cc2ccc(C(C(=O)N[C@@H](CO)c3ccccc3)C3CCCC3)cc2)cc1 (stereo partly drawn) | system: intestinal triglyceride absorption
[A] > 3 mg/kg
